read-out: urokinase plasminogen activator (uPA), PLAU (gene 5328); experiment: BSK_KF3CT_uPA: BioMAP Diversity Plus: KF3CT Assay for urokinase plasminogen activator (uPA) Biomarker Activity (AID 2283075); details: primary human keratinocytes with fibroblasts; actives raise or lower the signal
Activity calls are given as the source filed them. Rule for the calls: active = hit-call score of the fitted dose curve at least 0.9, where 1 is the maximum; inactive = score below 0.9.
Pick one and only one: active, inactive

Recorded results for 8 compounds are shown here.
Prompt: What classification did ClC1=C(Cl)[C@]2(Cl)[C@@H]3[C@@H](Cl)[C@H]4O[C@H]4[C@@H]3C1(Cl)C2(Cl)Cl end up with in this test?
Response: inactive

Prompt: What classification did C[C@]12CCC(=O)C=C1CC[C@@H]1[C@@H]2CC[C@]2(C)C(=O)CC[C@@H]12 end up with in this test?
Response: inactive

Prompt: What classification did CC#Cc1cc(C)nc(Nc2ccccc2)n1 end up with in this test?
Response: inactive

Prompt: What classification did O=C(NC(=O)c1cc(F)c(F)cc1Cl)Nc1cc(F)ccc1N1CCC(C(=O)O)CC1 end up with in this test?
Response: inactive

Prompt: What classification did CCCCCCCCCc1ccc(O)cc1 end up with in this test?
Response: active

Prompt: What classification did ClC(Cl)=C(c1ccc(Cl)cc1)c1ccc(Cl)cc1 end up with in this test?
Response: active

Prompt: What classification did O=S(=O)(O)C(F)(F)C(F)(F)C(F)(F)C(F)(F)C(F)(F)C(F)(F)F end up with in this test?
Response: inactive

Prompt: What classification did CCCN(CCC)N=O end up with in this test?
Response: inactive

***
Prompt: What classification did C1CC2OC2CC1C1CO1 (stereo unspecified) end up with in this test?
Response: inactive

Prompt: What classification did CCC(C)c1cc([N+](=O)[O-])cc([N+](=O)[O-])c1O (stereo unspecified) end up with in this test?
Response: inactive

Prompt: What classification did COS(=O)(=O)OC end up with in this test?
Response: inactive

Prompt: What classification did CCC(C)(CC)c1cc(NC(=O)c2c(OC)cccc2OC)on1 end up with in this test?
Response: inactive

----------
target: Cellular tumor antigen p53 (Homo sapiens) (UniProt P04637); assay: TOX21_p53_BLA_p5_ratio: Tox21 HCT-116 p53 Agonism Beta-lactamase Assay, Ratio, Phase 5 (AID 2283599)
Sequence (P04637 whole entry, looked up): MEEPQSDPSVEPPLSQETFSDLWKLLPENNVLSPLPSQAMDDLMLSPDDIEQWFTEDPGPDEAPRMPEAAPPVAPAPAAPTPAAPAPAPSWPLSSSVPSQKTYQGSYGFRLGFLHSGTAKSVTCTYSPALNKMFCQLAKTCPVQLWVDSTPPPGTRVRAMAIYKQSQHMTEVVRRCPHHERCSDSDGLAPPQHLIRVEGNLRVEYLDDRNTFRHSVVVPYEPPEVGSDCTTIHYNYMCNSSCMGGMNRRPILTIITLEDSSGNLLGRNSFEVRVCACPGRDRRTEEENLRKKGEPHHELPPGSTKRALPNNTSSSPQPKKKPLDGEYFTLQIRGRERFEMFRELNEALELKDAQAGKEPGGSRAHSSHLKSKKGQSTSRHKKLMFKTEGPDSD
Inconclusive results are not listed. Activity calls are given as the source filed them. Rule for the calls: active = hit-call score of the fitted dose curve at least 0.9, where 1 is the maximum; inconclusive = response in the unintended direction; inactive = score below 0.9.
Pick one and only one: active, inactive

Prompt: What classification did c1ccc(-c2ccccc2)cc1 end up with in this test?
Response: inactive

Prompt: What classification did O=S(=O)(O)C(F)(F)C(F)(F)C(F)(F)C(F)(F)F end up with in this test?
Response: inactive

Prompt: What classification did C=CC(N)=O end up with in this test?
Response: inactive

Prompt: What classification did ClC1=C(Cl)[C@]2(Cl)[C@@H]3[C@H]4C[C@H]([C@@H]5O[C@H]45)[C@@H]3[C@@]1(Cl)C2(Cl)Cl end up with in this test?
Response: inactive

Prompt: What classification did CCCCCCOC(=O)c1ccccc1C(=O)OCCCCCC end up with in this test?
Response: inactive

Prompt: What classification did CC(C)C(=O)OCC(C)(C)C(OC(=O)C(C)C)C(C)C (configuration not stated) end up with in this test?
Response: inactive

Prompt: What classification did O=C(O)C(F)(F)C(F)(F)C(F)(F)C(F)(F)C(F)(F)C(F)(F)C(F)(F)C(F)(F)C(F)(F)F end up with in this test?
Response: inactive

Prompt: What classification did O=C(NC(=O)c1c(F)cccc1F)Nc1cc(Cl)c(OC(F)(F)C(F)F)c(Cl)c1 end up with in this test?
Response: inactive

***
Prompt: What classification did CC(c1ccc(O)cc1)(c1ccc(O)cc1)c1ccc(O)cc1 end up with in this test?
Response: inactive

Prompt: What classification did NS(=O)(=O)C(F)(F)C(F)(F)C(F)(F)C(F)(F)C(F)(F)C(F)(F)C(F)(F)C(F)(F)F end up with in this test?
Response: active

Prompt: What classification did Cc1ccccc1O end up with in this test?
Response: inactive

----------
read-out: Cyclin Dependent Kinase Inhibitor 1A (CDKN1A), CDKN1A (gene 1026); experiment: LTEA_HepaRG_CDKN1A: Life Technologies and Expression Analysis (LTEA) Assay for Cyclin Dependent Kinase Inhibitor 1A (CDKN1A) using HepaRG (AID 2283450); details: mRNA level, 48 h; actives raise or lower the signal
Calls of active or inactive are those of the source. The calls were made as follows: active = hit-call score of the fitted dose curve at least 0.9, where 1 is the maximum; inactive = score below 0.9.
Pick one and only one: 1 (yes) = active, 0 (no) = inactive

Recorded results for 3 molecules are shown here.
Prompt: What classification did C[C@]12CCC(=O)C=C1CC[C@@H]1[C@@H]2CC[C@@]2(C)[C@H]1CC[C@]2(C)O end up with in this test?
Response: 1 (yes)

Prompt: What classification did CCCN(CCC)N=O end up with in this test?
Response: 0 (no)

Prompt: What classification did Clc1ccc(Cl)cc1 end up with in this test?
Response: 0 (no)

API: the following record is the query input.
Prompt: What classification did Clc1ccc(C(Cl)(Cl)Cl)cc1 end up with in this test?
Response: 0 (no)

----------
assay: CCTE_Shafer_MEA_dev_per_network_spike_spike_percent: CCTE's Neural Network Formation Assay for Percent of Spikes in a Network Spike, Shafer Lab (AID 2284054)
Active and inactive are the calls of the source. Rule for the calls: active = hit-call score of the fitted dose curve at least 0.9, where 1 is the maximum; inactive = score below 0.9.
Pick one and only one: active, inactive

Recorded results for 3 compounds are shown here.
Prompt: What classification did Oc1ccc(C(c2ccc(O)cc2)(C(F)(F)F)C(F)(F)F)cc1 end up with in this test?
Response: inactive

Prompt: What classification did C=CC(N)=O end up with in this test?
Response: inactive

Prompt: What classification did ClC1=C(Cl)[C@]2(Cl)[C@@H]3[C@@H]4C[C@@H]([C@H]5O[C@@H]45)[C@@H]3[C@@]1(Cl)C2(Cl)Cl end up with in this test?
Response: active

***
Prompt: What classification did ClC(Cl)=C(c1ccc(Cl)cc1)c1ccc(Cl)cc1 end up with in this test?
Response: active

Prompt: What classification did O=S(=O)(O)C(F)(F)C(F)(F)C(F)(F)C(F)(F)F end up with in this test?
Response: inactive

Prompt: What classification did c1cc2ccc3cccc4ccc(c1)c2c34 end up with in this test?
Response: inactive

Prompt: What classification did CCC(C)(c1ccc(O)cc1)c1ccc(O)cc1 end up with in this test?
Response: inactive

Prompt: What classification did ClC1=C(Cl)[C@]2(Cl)[C@@H]3[C@@H](Cl)[C@H]4O[C@H]4[C@@H]3C1(Cl)C2(Cl)Cl end up with in this test?
Response: active

Prompt: What classification did COc1ccc(O)c(C(C)(C)C)c1 end up with in this test?
Response: inactive

----------
read-out: Interleukin 6 (IL6), IL6 (gene 3569); assay: LTEA_HepaRG_IL6: Life Technologies and Expression Analysis (LTEA) Assay for Interleukin 6 (IL6) using HepaRG (AID 2283509); settings: mRNA level, 48 h; actives raise or lower the signal
Activity calls are given as the source filed them. Rule for the calls: active = hit-call score of the fitted dose curve at least 0.9, where 1 is the maximum; inactive = score below 0.9.
Pick one and only one: active, inactive

Prompt: What classification did CCCCCCCCOC(=O)c1ccccc1C(=O)OCCCCCCCC end up with in this test?
Response: inactive

***
Prompt: What classification did Clc1ccc(Cl)cc1 end up with in this test?
Response: inactive

Prompt: What classification did CC(c1ccc(O)cc1)(c1ccc(O)cc1)c1ccc(O)cc1 end up with in this test?
Response: active

Prompt: What classification did O=C(NC(=O)c1c(F)cccc1F)Nc1cc(Cl)c(OC(F)(F)C(F)F)c(Cl)c1 end up with in this test?
Response: inactive

Prompt: What classification did COS(=O)(=O)OC end up with in this test?
Response: inactive

Prompt: What classification did c1cc2ccc3cccc4ccc(c1)c2c34 end up with in this test?
Response: inactive

Prompt: What classification did CC1=C2C[C@H]3[C@@H](CC=C4C[C@@H](O)CC[C@@]43C)[C@@H]2CC[C@]12O[C@@H]1C[C@H](C)CN[C@H]1[C@H]2C end up with in this test?
Response: inactive

Prompt: What classification did Cc1cc(O)ccc1Cl end up with in this test?
Response: inactive

Prompt: What classification did Cc1ccccc1O end up with in this test?
Response: inactive

----------
read-out: Monokine induced gamma interferon (MIG), CXCL9 (gene 4283); experiment: BSK_3C_MIG: BioMAP Diversity Plus: 3C Assay for Monokine induced gamma interferon (MIG) Biomarker Activity (AID 2283021); conditions: primary human endothelial cells (HUVEC); actives raise or lower the signal
Active and inactive are the calls of the source. Rule for the calls: active = hit-call score of the fitted dose curve at least 0.9, where 1 is the maximum; inactive = score below 0.9.
Pick one and only one: YES = active, NO = inactive

Prompt: What classification did ClC(Cl)=C(c1ccc(Cl)cc1)c1ccc(Cl)cc1 end up with in this test?
Response: YES

Prompt: What classification did CCC(C)c1cc([N+](=O)[O-])cc([N+](=O)[O-])c1O (stereo not drawn) end up with in this test?
Response: NO

Prompt: What classification did O=C(O)C(F)(F)C(F)(F)C(F)(F)C(F)(F)C(F)(F)C(F)(F)C(F)(F)C(F)(F)F end up with in this test?
Response: NO

Prompt: What classification did Cc1ccccc1O end up with in this test?
Response: NO

Prompt: What classification did C=CC(=O)NCNC(=O)C=C end up with in this test?
Response: NO

Prompt: What classification did CCC(C)(c1ccc(O)cc1)c1ccc(O)cc1 end up with in this test?
Response: NO

Prompt: What classification did CCC(C)(CC)c1cc(NC(=O)c2c(OC)cccc2OC)on1 end up with in this test?
Response: NO

Prompt: What classification did C1CC2OC2CC1C1CO1 (stereo not drawn) end up with in this test?
Response: NO

***
Prompt: What classification did CC(C)(c1ccccc1)c1ccc(O)cc1 end up with in this test?
Response: YES

Prompt: What classification did CO/C=C(/C(=O)OC)c1ccccc1COc1cccc(C(F)(F)F)n1 end up with in this test?
Response: NO

Prompt: What classification did CCCCCCCCCC[N+](C)(C)CCCCCCCCCC end up with in this test?
Response: YES

Prompt: What classification did COc1ccc(O)c(C(C)(C)C)c1 end up with in this test?
Response: NO

Prompt: What classification did CN(C)c1nc(=O)n(C2CCCCC2)c(=O)n1C end up with in this test?
Response: NO

Source listed as PubChem BioAssay (EPA / NIEHS).
